Biological target: T1, E. coli Exonuclease I (E. coli, UniProt P04995 1-471)
T1 construct: Exonuclease I of E. coli, from plasmid pET14b-E. coli Exonuclease I (Addgene 104552); The His tag was cut off with thrombin only for the purified protein; also called ExoI; Exol; source: E. coli BL21 (DE3) pLysS, purified (Ni-NTA, heparin); also in cell lysate (pull-down)
T1 sequence: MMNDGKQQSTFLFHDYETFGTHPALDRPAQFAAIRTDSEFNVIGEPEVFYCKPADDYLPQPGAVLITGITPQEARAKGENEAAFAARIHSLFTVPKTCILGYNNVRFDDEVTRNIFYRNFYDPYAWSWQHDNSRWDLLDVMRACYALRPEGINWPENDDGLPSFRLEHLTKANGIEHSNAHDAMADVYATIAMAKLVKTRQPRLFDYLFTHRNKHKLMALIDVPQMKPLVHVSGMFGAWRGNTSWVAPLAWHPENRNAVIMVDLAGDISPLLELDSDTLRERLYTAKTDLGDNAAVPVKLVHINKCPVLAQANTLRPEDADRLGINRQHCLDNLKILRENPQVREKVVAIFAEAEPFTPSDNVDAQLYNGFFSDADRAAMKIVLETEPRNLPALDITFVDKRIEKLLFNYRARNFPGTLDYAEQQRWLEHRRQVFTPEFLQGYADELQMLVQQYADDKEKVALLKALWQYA
Experiment: ITC; peptide in the syringe titrated into ExoI in the cell; 20 mM Tris–HCl pH 8.0, 100 mM NaCl, 1 mM MgCl2, 4% glycerol, 1 mM β-mercaptoethanol; model A + B = C, stoichiometry fixed to 1:1, incompetent fraction fitted
Conditions: both partners purified
Primed or numbered codes have the meaning given here. Where no end group is shown, it is not given here. [ ]: non-standard residue; d: D form. Phe(4-CF3) = N[C@@H](Cc1ccc(C(F)(F)F)cc1)C(=O)O; β3hD = NC(CC(=O)O)CC(=O)O; Pip′ = not defined here
value.kind: Kd (nM)

Ac-DFDDDIPF (also called wild-type SSB-Ct; source: synthetic peptide (solid phase, HPLC purified)) [wtSSB-Ct, octapeptide identical to the SSB C-terminal acidic tip (residues 171-178 of SSB)]: 3070
Ac-E[Phe(4-CF3)]D[β3hD]EL[Pip′][Phe(4-CF3)] (not fully specified; printed as E1-sSSB-Ct (Glu–4-CF3-Phe–Asp–β^3-Asp–Glu–Leu–Pip–4-CF3-Phe)) [E1-sSSB-Ct (Glu–4-CF3-Phe–Asp–β^3-Asp–Glu–Leu–Pip–4-CF3-Phe)]: 20
